What growth was measured for each of the following?
# Test system: NCI-H522 lung
# ASSAY OVERVIEW: NCI-60 one-dose screen, 48 h (100 = growth as untreated, 0 = no growth, -100 = all killed)
# TEST PARAMETERS: 10 µM
About 83,000 compounds went through this panel and 20% of them were active in at least one assay; those are over-represented in the sample as a whole.
Give bare numbers, in %.

Below are worked cases with known answers.
Prompt: Consider the molecule `Cc1cc(C)c(S(=O)O)c(C)c1` and give its measured growth.
Completion: 101

Prompt: Consider the molecule `O=C(CCc1nnc2sc(-c3ccccc3)nn12)c1nc2ccccc2[nH]1` and give its measured growth.
Completion: 91.2

Prompt: Consider the molecule `Brc1ccccc1Nc1ccc2nnc(-c3ccncc3)n2n1` and give its measured growth.
Completion: -71.2

Prompt: Consider the molecule `Cc1ccc(S(=O)(=O)N(c2ccc(Cl)cc2)c2ccc(Br)cc2C(=O)O)cc1` and give its measured growth.
Completion: 102

Prompt: Consider the molecule NC1=NC(c2ccccc2OS(=O)(=O)c2ccc(Br)cc2)n2c(nc3ccccc32)N1 (stereo not given) and give its measured growth.
Completion: 82

Prompt: Consider the molecule `COc1ccc(NS(=O)(=O)c2ccc(-c3cnc(C4CC4)o3)cc2)cc1` and give its measured growth.
Completion: 51

Prompt: Consider the molecule O=C1CCC(N2Cc3c(C#CCCCNC(=O)c4cc5c(o4)C(=O)c4ccccc4C5=O)cccc3C2=O)C(=O)N1 (stereo not given) and give its measured growth.
Completion: -61.2

Prompt: Consider the molecule `CCCCCCCCCCCCCCNc1nc(CO)ncc1-c1ccc(C(F)(F)F)cc1` and give its measured growth.
Completion: 90.6

Give me growth for each of these molecules, listed below.
1. CN1CCn2c(c(Sc3ccc(C(=O)NO)cc3)c3ccccc32)C1=O
2. N#CC1=C(N)Oc2cc(N)ccc2C1c1ccc(F)cc1 (stereo not given)

Completion:
-97.3
54.1

###

# Tested on: OVCAR-8 ovarian
# ASSAY OVERVIEW: NCI-60 one-dose screen, 48 h (100 = growth as untreated, 0 = no growth, -100 = all killed)
# TEST PARAMETERS: 10 µM unless noted
This is part of a sample that, as a whole, favours compounds with a hit. Of some 83,000 tested, about 20% had one in any assay.
What growth was measured for each of the following?
One number for each entry, in %.

Give me growth for each of these molecules, listed below.
1. CNc1ccc(Br)cc1-c1n[nH]c(=O)[nH]c1=O
2. CN([N-]C(=O)CC(=O)[N-]N(C)C(=S)c1ccccc1)C(=S)c1ccccc1.[Cu+2]
3. Cn1c2c(cc(S(=O)(=O)c3ccccc3)c1=O)CCc1c-2cnn1-c1cccc(Cl)c1
4. CCCOC(=O)c1ccc2c(c1)[N+](=O)C(C(=O)c1ccccc1)=C(C(F)(F)F)[N+]2=O
5. Clc1ccc(Nc2ccnc(N3CCN(c4ccnc5cc(Cl)ccc45)CC3)n2)cc1
6. O=c1c2c(=NCCN3CCCC3)cc3c(=O)n(CCCN4CCOCC4)c(=O)c4ccc(c(O)n1CCCN1CCOCC1)c2c4-3
7. NC1=NC(c2ccccc2OS(=O)(=O)c2ccc(Br)cc2)n2c(nc3ccccc32)N1 (stereo unspecified)
8. CC(C)(C)CC(C)(C)N(CSc1ccc(Cl)cc1)CSc1ccc(Cl)cc1

Completion:
1: 100; 2: -39.1; 3: 88.8; 4: -86; 5: 61.4; 6: 11.9; 7: 88.3; 8: 44.6

Give me growth for each of these molecules, listed below.
1. CC(C)(C)[Si](C)(C)OC1[C@@H](COC(N)=O)O[C@@H](n2cnc3c(N)ncnc32)[C@H]1O[Si](C)(C)C(C)(C)C (stereo partly specified)
2. COCCOC1=C(Cl)C(=O)c2ccccc2C1=O
3. O=[N+]([O-])c1cc2c(cc1Br)-c1ccccc1C2
4. O=S(=O)(Nc1ccc(Cl)c(Cl)c1)c1ccc(-c2cnc(C3CC3)o2)cc1
5. CN1CCc2c(Sc3ccc(C(=O)NO)cc3)c3ccccc3n2C1
6. O=C1c2ccccc2-c2nnc(-c3ccc(Br)cc3)cc21

Completion:
84.9
13.2
97.3
33.3
7.62
77.7

Give me growth for each of these molecules, listed below.
1. COc1ccc(OC2=CC(=O)c3ccc(C)nc3C2=O)cc1
2. Brc1ccc(Br)nn1
3. COc1ccc(-n2c(SCc3cc(OC)c(OC)c(OC)c3)nc3ccc(C)cc3c2=O)c(OC)c1
4. COc1ccc(C2=NOC(CC(=O)N(CCO)CCO)C2)cc1OC1CCCC1 (stereo unspecified)
5. CCCCCCCCCCCCCCn1c2ccccc2c2c3c(c4c5cc(OC)ccc5oc4c21)C(=O)NC3=O
6. COc1cccc2c(=O)c3c(sc12)c(NCCN(C)C)nc1ccccc13
7. N#C/C(=C\c1ccc[nH]1)c1cc2ccccc2[nH]1

Completion:
[80.7, -34.1, 45.6, 102, 103, 25.2, 74.9]

###

# System: IGROV1 ovarian
# ASSAY OVERVIEW: NCI-60 one-dose screen, 48 h (100 = growth as untreated, 0 = no growth, -100 = all killed)
# TEST PARAMETERS: 10 µM unless noted
Compounds without any hit were thinned out: in the full panel of roughly 83,000, 20% have a hit.
OBSERVATION TYPE: growth (%)
One number for each entry, in %.

Prompt: Consider the compound `COc1ccc(-n2c(SCc3cc(OC)c(OC)c(OC)c3)nc3ccc(C)cc3c2=O)c(OC)c1` and give its measured growth.
Completion: 35.7

Give me growth for each of these compounds, listed below.
1. COc1ccc(NS(=O)(=O)c2ccc(-c3cnc(C4CC4)o3)cc2)cc1
2. O=C1C2CC3C(CC2C(=O)[N]1[Sn]([c]1ccccc1)([c]1ccccc1)[c]1ccccc1)C1(Cl)C(Cl)=C(Cl)C3(Cl)C1(Cl)Cl (centres undefined)
3. CC(=O)Nc1ccccc1-c1n[nH]c(=O)[nH]c1=O
4. COc1ccc(/C=C2\CN(Cc3cn(CCCNc4ccnc5cc(Cl)ccc45)nn3)C/C(=C\c3ccc(OC)c(OC)c3)C2=O)cc1OC
5. O=C(N/N=C/c1ccc(F)cc1)c1[nH]c2ccc(I)cc2c1-c1ccccc1
6. COc1ccc(/C=N\N2CCOCC2)cc1OC1CCCC1
7. COCCOC1=C(Cl)C(=O)c2ccccc2C1=O
8. COc1ccc(/C=C2\CN(Cc3cn(CCCNc4ccnc5cc(Cl)ccc45)nn3)C/C(=C\c3ccc(OC)cc3)C2=O)cc1

Completion:
[62.8, -66.2, 104, 31.7, 23.8, 107, 21, 65]

###

# System: HS 578T breast
# ASSAY OVERVIEW: NCI-60 one-dose screen, 48 h (100 = growth as untreated, 0 = no growth, -100 = all killed)
# TEST PARAMETERS: 10 µM unless noted
Compounds without any hit were thinned out: in the full panel of roughly 83,000, 20% have a hit.
OBSERVATION TYPE: growth (%)
One number for each entry, in %.

Give me growth for each of these compounds, listed below.
1. CCN(CC)c1ccc2c(c1)OS(=O)(=O)N=C2
2. CCOC(=O)n1cc(C2=C(c3cn(C)c4ccccc34)COC2=O)c2ccccc21
3. O=C(O)c1ccccc1Oc1cc(-c2ccco2)nc(OCCBr)n1
4. COc1ccc(-c2nc(Nc3ccc(F)cc3)nc(Nc3ccc4c(c3)nc(C)n4Cc3ccccc3)n2)cc1
5. COc1ccc(/C=C2\Oc3cc(C)c(Cl)cc3C2=O)cc1OC

Completion:
1. 110
2. 9.62
3. 98.1
4. 54.5
5. 109

Give me growth for each of these compounds, listed below.
1. O=C1CCC(N2Cc3c(C#CCCCNC(=O)c4cc5c(o4)C(=O)c4ccccc4C5=O)cccc3C2=O)C(=O)N1 (stereo not given)
2. CCC(C)[C@H]1O[C@]2(CC[C@@H]1C)C[C@@H]1C[C@@H](C/C=C(\C)[C@@H](OC3C[C@H](OC)C(O[C@H]4C[C@H](OC)[C@@H](O)[C@H](C)O4)[C@H](C)O3)[C@@H](C)/C=C/C=C3\CO[C@@H]4[C@H](O)C(C)=C[C@@H](C(=O)O1)[C@]34O)O2 (stereo not given in full)

Completion:
[-32.8, 26]

Give me growth for each of these compounds, listed below.
1. CC(C)OC1=C(Cl)C(=O)c2ccccc2C1=O
2. c1ccc(-c2n(Cc3ccc4ccccc4n3)c3ccccc3[n+]2Cc2ccc3ccccc3n2)cc1
3. NC(=O)c1nc2c([nH]c1=O)CCCC2
4. Nc1nc(N)c(N=Nc2c(Br)cc(S(N)(=O)=O)cc2Br)c(N)n1
5. CC(C)NCC(O)COc1ccc(CCOCC2CC2)cc1 (stereo not given)
6. CCOC(=O)c1c(Cl)c2c(n1Cc1cc(OC)cc(OC)c1)-c1oncc1CCC2
7. CCSc1nnc2c3cc(Br)ccc3n(C)c2n1
8. COc1cccc(OC)c1OC(=O)c1ccccc1

Completion:
1. 81.5
2. 2.04
3. 109
4. 95.1
5. 109
6. 29.6
7. 111
8. 96.6
